Answer each item with its documented inhibition at 10 µM.
Biological target: cyclo-oxygenase (Bos taurus, UniProt O62664)
Construct: formed by bovine thrombocytes following addition of calcium ionophore; endogenous in cells; host or cells: thrombocytes isolated from the supernatant of centrifuged bovine blood
Sequence (O62664 25-600): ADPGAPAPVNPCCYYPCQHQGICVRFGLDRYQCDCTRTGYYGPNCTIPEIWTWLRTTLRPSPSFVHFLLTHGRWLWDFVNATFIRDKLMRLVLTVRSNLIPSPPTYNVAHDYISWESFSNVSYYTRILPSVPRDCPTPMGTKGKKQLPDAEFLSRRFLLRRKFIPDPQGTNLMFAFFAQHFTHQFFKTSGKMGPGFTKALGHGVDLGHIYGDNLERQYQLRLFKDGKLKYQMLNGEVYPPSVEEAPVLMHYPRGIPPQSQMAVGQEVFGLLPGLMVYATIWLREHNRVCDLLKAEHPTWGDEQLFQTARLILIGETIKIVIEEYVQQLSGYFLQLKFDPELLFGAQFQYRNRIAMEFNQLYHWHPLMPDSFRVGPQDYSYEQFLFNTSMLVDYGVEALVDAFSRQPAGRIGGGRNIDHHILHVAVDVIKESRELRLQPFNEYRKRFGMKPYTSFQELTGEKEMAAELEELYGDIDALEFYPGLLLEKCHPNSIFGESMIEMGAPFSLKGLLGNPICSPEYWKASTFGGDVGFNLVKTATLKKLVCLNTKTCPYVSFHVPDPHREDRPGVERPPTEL
Assay: inhibition of cyclo-oxygenase (12-HHT or prostaglandin E2 formed by calcium-ionophore stimulated bovine thrombocytes)
Assay type: cell-based
Details: Table 1, read-out: INHIBITION % Cyclooxygenase
Numbers only, in %.

>  <ENTRY_SMILES>
CC1(C)Cc2c(-c3ccccc3)c(-c3ccccc3)c(CC(=O)O)n2C1

>  <ENDPOINT_NAME>
inhibition at 10 µM

>  <MEASUREMENT_UNIT>
%

>  <MEASURED_VALUE>
99

$$$$
>  <ENTRY_SMILES>
CC1(C)Cc2c(-c3ccccc3)c(-c3ccccc3)c(CCC(=O)O)n2C1

>  <ENDPOINT_NAME>
inhibition at 10 µM

>  <MEASUREMENT_UNIT>
%

>  <MEASURED_VALUE>
97

$$$$
>  <ENTRY_SMILES>
O=C(O)CCc1c(-c2ccc(Oc3ccccc3)cc2)c(-c2ccccc2)c2n1CCC2

>  <ENDPOINT_NAME>
inhibition at 10 µM

>  <MEASUREMENT_UNIT>
%

>  <MEASURED_VALUE>
70

$$$$

Below: the item to evaluate.
// returns reported inhibition at 10 µM for input O=C(O)Cc1c(-c2ccccc2)c(-c2ccccc2)c2n1CCC2
91

* * *

Would you kindly list inhibition at 10 µM for each of these molecules?
Molecular target: 5-lipoxygenase (Bos taurus, UniProt F1MQ78)
Construct: The source for 5-lipoxygenase were bovine granulocytes; endogenous in cells; host or cells: granulocytes isolated from EDTA-anticoagulated bovine blood
Sequence (F1MQ78 1-674): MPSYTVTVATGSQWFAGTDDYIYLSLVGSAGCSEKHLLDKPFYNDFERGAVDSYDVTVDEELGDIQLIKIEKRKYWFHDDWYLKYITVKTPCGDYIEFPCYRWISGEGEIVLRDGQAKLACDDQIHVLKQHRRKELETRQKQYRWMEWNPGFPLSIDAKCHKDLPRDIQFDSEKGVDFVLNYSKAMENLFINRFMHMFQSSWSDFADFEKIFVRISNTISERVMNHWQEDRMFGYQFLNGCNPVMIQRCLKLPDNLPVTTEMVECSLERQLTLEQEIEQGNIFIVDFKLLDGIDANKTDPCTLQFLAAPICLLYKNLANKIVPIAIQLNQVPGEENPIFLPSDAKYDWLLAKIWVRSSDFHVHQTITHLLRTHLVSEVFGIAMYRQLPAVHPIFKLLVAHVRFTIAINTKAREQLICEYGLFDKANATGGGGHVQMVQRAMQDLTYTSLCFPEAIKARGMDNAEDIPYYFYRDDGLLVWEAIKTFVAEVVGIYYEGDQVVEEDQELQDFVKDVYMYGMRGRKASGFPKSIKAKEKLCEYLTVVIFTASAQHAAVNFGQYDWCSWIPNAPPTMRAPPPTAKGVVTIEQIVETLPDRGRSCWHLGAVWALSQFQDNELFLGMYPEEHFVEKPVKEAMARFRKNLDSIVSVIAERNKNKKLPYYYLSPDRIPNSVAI
Assay: inhibition of 5-lipoxygenase (LTB4 formed by calcium-ionophore stimulated bovine granulocytes)
Assay type: cell-based
Details: Table 1

Known results for molecules:
>  <ENTRY_SMILES>
CC1(C)Cc2c(-c3ccccc3)c(-c3ccccc3)c(CCC(=O)O)n2C1

>  <ENDPOINT_NAME>
inhibition at 10 µM

>  <MEASURED_VALUE>
91%

$$$$
>  <ENTRY_SMILES>
CC1(C)Cc2c(CCCCCC(=O)O)c(-c3ccccc3)c(-c3ccccc3)n2C1

>  <ENDPOINT_NAME>
inhibition at 10 µM

>  <MEASURED_VALUE>
96%

$$$$
>  <ENTRY_SMILES>
O=C(O)CCc1c(-c2ccc(Oc3ccccc3)cc2)c(-c2ccccc2)c2n1CCC2

>  <ENDPOINT_NAME>
inhibition at 10 µM

>  <MEASURED_VALUE>
98%

$$$$

Kindly give each listed record's inhibition at 10 µM.
1. O=C(O)CCc1c(-c2cccc(Cl)c2)c(-c2ccccc2)c2n1CCC2
2. O=C(O)CCCCCc1c(-c2ccccc2)c2n(c1-c1ccccc1)CCC2
3. O=C(O)CCc1c(-c2cccc3ccccc23)c(-c2ccccc2)c2n1CCC2
4. CC1(C)Cc2c(CCC(=O)O)c(-c3ccccc3)c(-c3ccccc3)n2C1
5. O=C(O)CCCCCc1c(-c2ccccc2)c(-c2ccccc2)n2c1CCC2
6. CC1(C)Cc2c(-c3ccccc3)c(-c3ccccc3)c(CC(=O)O)n2C1
7. O=C(O)CCCCc1c(-c2ccccc2)c(-c2ccccc2)n2c1CCC2
8. Cc1ccc(-c2c(-c3ccccc3)c3n(c2CCC(=O)O)CCC3)cc1

1: 89%; 2: 80%; 3: 94%; 4: 93%; 5: 86%; 6: 94%; 7: 86%; 8: 92%

# map each molecule to its inhibition at 10 µM
1. O=C(O)CCCCc1c(-c2ccccc2)c2n(c1-c1ccccc1)CCC2
2. O=C(O)CCc1c(-c2ccc(Cl)cc2)c(-c2ccccc2)c2n1CCC2
3. O=C(O)/C=C/c1c(-c2ccccc2)c(-c2ccccc2)c2n1CCC2
4. CC1(C)Cc2c(C=CC(=O)O)c(-c3ccccc3)c(-c3ccccc3)n2C1

82%
98%
80%
91%

# map each molecule to its inhibition at 10 µM
1. COc1ccc(-c2c(-c3ccccc3)c3n(c2CCC(=O)O)CCC3)cc1
2. CCCCCCc1c(-c2ccccc2)c2n(c1C=CC(=O)O)CCC2

1: 91%; 2: 82%
